biological target: recombinant glucosyltransferase domain of C. difficile Toxin B/TcdB (Clostridioides difficile); construct: 6-His (C); purchased R&D Systems 6246-GT; experiment: biochemical
Sequence (P18177 1-543): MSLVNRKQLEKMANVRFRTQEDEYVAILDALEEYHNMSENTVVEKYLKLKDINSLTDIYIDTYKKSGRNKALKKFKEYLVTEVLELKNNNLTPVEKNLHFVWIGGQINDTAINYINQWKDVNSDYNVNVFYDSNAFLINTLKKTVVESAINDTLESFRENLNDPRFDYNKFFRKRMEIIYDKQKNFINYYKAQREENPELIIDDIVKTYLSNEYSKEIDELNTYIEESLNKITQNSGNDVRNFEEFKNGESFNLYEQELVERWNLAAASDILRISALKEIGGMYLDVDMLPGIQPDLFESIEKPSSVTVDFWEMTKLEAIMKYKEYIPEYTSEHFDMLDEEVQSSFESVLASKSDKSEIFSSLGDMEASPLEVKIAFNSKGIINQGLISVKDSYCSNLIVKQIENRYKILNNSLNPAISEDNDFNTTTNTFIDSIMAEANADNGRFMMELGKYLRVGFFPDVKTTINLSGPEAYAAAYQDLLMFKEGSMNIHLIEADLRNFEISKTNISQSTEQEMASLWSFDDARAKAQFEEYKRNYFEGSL
readout-type: IC50

INSERT INTO results (molecule, observed_result) VALUES
  ('N#Cc1cccc(C[C@@H]2C(=O)Nc3cc(Cl)ccc3C(=O)N2Cc2ccc(C(=O)Nc3ccccn3)cc2)c1', '< 100 nM'),
  ('O=C(Nc1ccccn1)c1ccc(CN2C(=O)c3ccc(Cl)cc3NC(=O)[C@H]2CCc2ccccc2)cc1', '1000 to 10000 nM'),
  ('C[C@@H]1C(=O)Nc2cc(Cl)ccc2C(=O)N1Cc1ccc(C(=O)Nc2ccc(C(F)(F)F)cn2)c(-c2ccc3c(c2)OCO3)c1 [Example 54a]', '1000 to 10000 nM'),
  ('O=C(Nc1ccccn1)c1ccc(CN2C(=O)c3ccc(F)cc3NC(=O)[C@H]2Cc2ccc(Cl)c(Cl)c2)cc1', '100 to 999 nM'),
  ('CS(=O)(=O)NC(=O)c1ccc(CN2C(=O)c3ccc(Cl)cc3NC(=O)[C@H]2Cc2cccnc2)cc1 [Example 15b]', '1000 to 10000 nM');

Query: IC50; subject: `Cc1ccc(-c2cc(CN3C(=O)c4ccc(Cl)cc4NC(=O)[C@H]3Cc3ccccn3)ccc2C(=O)O)cc1`
100 to 999 nM

Query: IC50; subject: `COc1cnc(NC(=O)c2ccc(CN3C(=O)c4ccc(Cl)cc4NC(=O)[C@H]3C)cc2)nc1`
< 100 nM
